test-target: Vascular endothelial growth factor receptor 2 (Homo sapiens, UniProt P35968)
Sequence (P35968 whole entry): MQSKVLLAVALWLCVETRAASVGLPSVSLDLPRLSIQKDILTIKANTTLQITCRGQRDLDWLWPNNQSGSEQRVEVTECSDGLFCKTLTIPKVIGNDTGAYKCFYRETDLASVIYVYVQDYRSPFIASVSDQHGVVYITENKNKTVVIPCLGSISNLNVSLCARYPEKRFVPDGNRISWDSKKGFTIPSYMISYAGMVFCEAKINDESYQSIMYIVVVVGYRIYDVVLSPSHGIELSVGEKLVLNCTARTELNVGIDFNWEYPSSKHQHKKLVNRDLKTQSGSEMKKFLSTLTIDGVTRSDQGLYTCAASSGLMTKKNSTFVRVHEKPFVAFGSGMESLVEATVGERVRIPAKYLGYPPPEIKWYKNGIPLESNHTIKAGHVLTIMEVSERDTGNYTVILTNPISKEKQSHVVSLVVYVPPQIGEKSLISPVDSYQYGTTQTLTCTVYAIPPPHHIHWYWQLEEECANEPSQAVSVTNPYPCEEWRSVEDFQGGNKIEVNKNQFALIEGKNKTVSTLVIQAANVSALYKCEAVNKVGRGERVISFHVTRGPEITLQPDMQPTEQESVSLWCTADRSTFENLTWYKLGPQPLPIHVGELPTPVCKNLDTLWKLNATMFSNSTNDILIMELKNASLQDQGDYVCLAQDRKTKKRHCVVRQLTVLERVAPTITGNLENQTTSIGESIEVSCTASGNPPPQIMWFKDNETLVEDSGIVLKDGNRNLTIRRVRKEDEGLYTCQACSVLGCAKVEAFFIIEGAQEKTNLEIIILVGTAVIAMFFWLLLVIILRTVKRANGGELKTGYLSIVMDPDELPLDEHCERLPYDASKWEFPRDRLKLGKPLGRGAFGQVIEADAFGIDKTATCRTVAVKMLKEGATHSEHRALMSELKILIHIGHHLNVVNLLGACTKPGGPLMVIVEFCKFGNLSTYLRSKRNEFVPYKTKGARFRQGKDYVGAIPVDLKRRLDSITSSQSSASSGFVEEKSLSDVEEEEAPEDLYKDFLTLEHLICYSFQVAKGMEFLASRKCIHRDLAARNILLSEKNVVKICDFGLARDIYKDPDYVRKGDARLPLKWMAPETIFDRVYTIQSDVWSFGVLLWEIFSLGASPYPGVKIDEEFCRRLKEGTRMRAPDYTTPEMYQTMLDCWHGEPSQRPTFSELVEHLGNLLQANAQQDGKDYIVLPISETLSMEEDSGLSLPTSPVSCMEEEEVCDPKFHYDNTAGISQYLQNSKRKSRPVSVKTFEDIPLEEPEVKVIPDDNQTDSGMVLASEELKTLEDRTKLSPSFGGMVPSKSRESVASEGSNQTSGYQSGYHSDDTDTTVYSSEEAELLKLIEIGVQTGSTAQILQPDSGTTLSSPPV
assay-summary: Inhibition of human N-terminal GST tagged VEGFR-2 expressed in baculovirus infected Sf9 cells using poly (Glu,Tyr) 4:1 as substrate in presence of ATP by Kinase-Glo luminescence assay
quantity-name: IC50 (nM)
Kindly answer with a numeric value in nM, unit omitted.

Reference set, count: 3
chemical-smiles: CCOC(=O)c1ccc(Nc2ccnc(SCC(=O)c3ccc(C(F)(F)F)cc3)n2)cc1
quantity-name: IC50
experimental-result: 1960
//
chemical-smiles: O=C(O)c1ccc(Nc2ccnc(SCC(=O)c3ccc(-c4ccccc4)cc3)n2)cc1
quantity-name: IC50
experimental-result: 570
//
chemical-smiles: N#Cc1ccc(C(=O)CSc2nccc(Nc3ccc(C(=O)O)cc3)n2)cc1
quantity-name: IC50
experimental-result: 120

Kindly consider the entry below.
The reported IC50 of the compound CCOC(=O)c1ccc(Nc2ccnc(SCC(=O)c3ccc(OC)cc3)n2)cc1 was 190
